Every entry's value here was drawn from patent US20060008846A1.

subject-of-test: T1, ALK4 (activin type I receptor) (UniProt P36896 24-505, limits assumed)
T1 sequence (looked up): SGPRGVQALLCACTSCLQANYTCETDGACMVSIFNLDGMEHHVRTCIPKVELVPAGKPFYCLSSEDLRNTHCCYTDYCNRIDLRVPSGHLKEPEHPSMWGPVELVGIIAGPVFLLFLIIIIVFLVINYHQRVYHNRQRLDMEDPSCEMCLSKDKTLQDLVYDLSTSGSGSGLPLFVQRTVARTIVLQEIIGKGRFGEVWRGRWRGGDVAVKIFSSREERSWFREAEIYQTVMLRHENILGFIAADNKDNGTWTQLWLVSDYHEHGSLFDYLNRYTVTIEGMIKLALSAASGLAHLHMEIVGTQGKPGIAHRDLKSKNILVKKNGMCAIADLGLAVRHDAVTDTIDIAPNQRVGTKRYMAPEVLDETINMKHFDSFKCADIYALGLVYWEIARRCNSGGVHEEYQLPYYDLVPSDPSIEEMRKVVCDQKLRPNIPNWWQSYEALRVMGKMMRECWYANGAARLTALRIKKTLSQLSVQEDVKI
measurement-notes: cell-based or functional assay
measurement-kind: % Activin Activity (A3-luciferase assay in 293T cells)

Please review the following examples before continuing.
binder	observed
activin-A I63P (ligand, human, UniProt P08476 311-426, looked up) GLECDGKVNICCKKQFFVSFKDIGWNDWIIAPSGYHANYCEGECPSHIAGTSGSSLSFHSTVPNHYRMRGHSPFANLKSCCVPTKLRPMSMLYYDDGQNIIKKDIQNMIVEECGCS	19 % of wild type activin-A
wild type activin-A (ligand, human, UniProt P08476 311-426, looked up, mature; As tracer it was radioiodinated by the chloramine T method; also called WT activin-A; wt activin-A) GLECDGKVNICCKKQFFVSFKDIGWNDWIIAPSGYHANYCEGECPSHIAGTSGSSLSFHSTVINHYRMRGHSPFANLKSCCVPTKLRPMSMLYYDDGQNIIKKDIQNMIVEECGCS	100 % of wild type activin-A

Lookup: Param item = activin-A S60P (ligand, human, UniProt P08476 311-426, looked up) GLECDGKVNICCKKQFFVSFKDIGWNDWIIAPSGYHANYCEGECPSHIAGTSGSSLSFHPTVINHYRMRGHSPFANLKSCCVPTKLRPMSMLYYDDGQNIIKKDIQNMIVEECGCS ; retrieve measured % Activin Activity (A3-luciferase assay in 293T cells).
Found: 17 % of wild type activin-A

Lookup: Param item = A/C-2 chimeric activin A/activin C protein (ligand, human, UniProt P08476 311-426, looked up) GLECDGKVNICCKKQFFVSFKDIGWNDWIIAPSGYHANYCEGECPSHIAGTSGSSLSFHTAVLNLLKANTAAPFANLKSCCVPTKLRPMSMLYYDDGQNIIKKDIQNMIVEECGCS ; retrieve measured % Activin Activity (A3-luciferase assay in 293T cells).
Found: 17 % of wild type activin-A
